assay-name: growth suppression of yeast trafficking mutant, preliminary HTS, modulators of trafficking downstream of Golgi apparatus project, 1536-format plate, OD 615 nm (AID 637)
reported-conditions: yeast transport mutant growth, absorbance 615 nm, 18 h; stronger effect = higher value
Recorded inhibition by entry
Kindly answer with a numeric value in %, unit omitted.

molecule: COc1cccc(OCCOCCN(C)CCO)c1
endpoint: inhibition
unit-of-measure: %
reported-result: -1.45

molecule: CCCCn1cnc2c1c(=O)n(C)c(=O)n2C
endpoint: inhibition
unit-of-measure: %
reported-result: 0.18

molecule: O=c1[nH]c(N2CCCCC2)nc2c1CCCC2
endpoint: inhibition
unit-of-measure: %
reported-result: 15.3

molecule: OCc1nc2ccccc2n1CCCOc1ccccc1
endpoint: inhibition
unit-of-measure: %
reported-result: -0.83

molecule: CN(C)C(=O)CSc1nnc2sc3ccccc3n12
endpoint: inhibition
unit-of-measure: %
reported-result: 1.82

input: Find the recorded inhibition belonging to Cc1ccc(S(=O)(=O)Cn2nnnc2C(C(C)C)N2CCN(C(=O)c3ccco3)CC2)cc1 (centres undefined) and report it.
output: -4.29

input: Find the recorded inhibition belonging to `CN(C)CCN(Cc1ccccc1)c1ccccn1` and report it.
output: -0.67

input: Find the recorded inhibition belonging to `C=CCn1c(SCC(=O)C(C)(C)C)nnc1-c1ccccn1` and report it.
output: -3.64

input: Find the recorded inhibition belonging to `Fc1ccc(C(c2ccc(F)cc2)N2CCN(C/C=C/c3ccccc3)CC2)cc1` and report it.
output: -1.17

* * *

assay-name: HUVEC growth inhibition – cell-based, human, primary screen (AID 575);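 also: 100% = median of untreated cell wells with 0.1% DMSO on each plate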
reported-conditions: HUVEC proliferation, CellTiter-Glo luminescence, 72 h; at 10 µM; stronger effect = lower value
Recorded viability by entry
Kindly answer with a numeric value in %, unit omitted.

Some solved cases for reference:
compound: COc1ccc(COC(=O)c2n[nH]c3ccccc23)cc1F
unit-of-measure: %
reported-result: 85.2

compound: CC(=O)c1cccc(NC(=O)NCc2ccco2)c1
unit-of-measure: %
reported-result: 93.9

compound: O=C(NC12CC3CC(CC(C3)C1)C2)N1CCN(C(=O)C2CCCO2)CC1 (stereo unspecified)
unit-of-measure: %
reported-result: 111

input: Find the recorded viability belonging to `Cc1ccccc1Cc1c(C)nc2c(C(=O)N3CCN(Cc4ccc5c(c4)OCO5)CC3)cnn2c1C` and report it.
output: 59.6

input: Find the recorded viability belonging to CN(C(=O)C1CCOC1)c1nnc(-c2cccnc2)s1 (stereo unspecified) and report it.
output: 101

input: Find the recorded viability belonging to O=S(=O)(c1ccc(OCC(O)CN2CCN(c3ccccc3)CC2)cc1)N1CCOCC1 (stereo unspecified) and report it.
output: 110

input: Find the recorded viability belonging to CC(=O)Nc1ccc(S(=O)(=O)N(C2=NCC(C)S2)c2ccccc2)cc1 (stereo unspecified) and report it.
output: 80.3

input: Find the recorded viability belonging to O=C(CSc1nnc(-c2cccs2)o1)NCC1CN(Cc2ccccc2)CCO1 (stereo unspecified) and report it.
output: 106

input: Find the recorded viability belonging to `Cc1nn(-c2ccccc2)c2c1C(=O)NC(=O)C(C)(C)C2` and report it.
output: 105

* * *

measurement-target: Receptor tyrosine-protein kinase erbB-2 (Homo sapiens) (UniProt P04626)
Sequence (P04626 whole entry, looked up): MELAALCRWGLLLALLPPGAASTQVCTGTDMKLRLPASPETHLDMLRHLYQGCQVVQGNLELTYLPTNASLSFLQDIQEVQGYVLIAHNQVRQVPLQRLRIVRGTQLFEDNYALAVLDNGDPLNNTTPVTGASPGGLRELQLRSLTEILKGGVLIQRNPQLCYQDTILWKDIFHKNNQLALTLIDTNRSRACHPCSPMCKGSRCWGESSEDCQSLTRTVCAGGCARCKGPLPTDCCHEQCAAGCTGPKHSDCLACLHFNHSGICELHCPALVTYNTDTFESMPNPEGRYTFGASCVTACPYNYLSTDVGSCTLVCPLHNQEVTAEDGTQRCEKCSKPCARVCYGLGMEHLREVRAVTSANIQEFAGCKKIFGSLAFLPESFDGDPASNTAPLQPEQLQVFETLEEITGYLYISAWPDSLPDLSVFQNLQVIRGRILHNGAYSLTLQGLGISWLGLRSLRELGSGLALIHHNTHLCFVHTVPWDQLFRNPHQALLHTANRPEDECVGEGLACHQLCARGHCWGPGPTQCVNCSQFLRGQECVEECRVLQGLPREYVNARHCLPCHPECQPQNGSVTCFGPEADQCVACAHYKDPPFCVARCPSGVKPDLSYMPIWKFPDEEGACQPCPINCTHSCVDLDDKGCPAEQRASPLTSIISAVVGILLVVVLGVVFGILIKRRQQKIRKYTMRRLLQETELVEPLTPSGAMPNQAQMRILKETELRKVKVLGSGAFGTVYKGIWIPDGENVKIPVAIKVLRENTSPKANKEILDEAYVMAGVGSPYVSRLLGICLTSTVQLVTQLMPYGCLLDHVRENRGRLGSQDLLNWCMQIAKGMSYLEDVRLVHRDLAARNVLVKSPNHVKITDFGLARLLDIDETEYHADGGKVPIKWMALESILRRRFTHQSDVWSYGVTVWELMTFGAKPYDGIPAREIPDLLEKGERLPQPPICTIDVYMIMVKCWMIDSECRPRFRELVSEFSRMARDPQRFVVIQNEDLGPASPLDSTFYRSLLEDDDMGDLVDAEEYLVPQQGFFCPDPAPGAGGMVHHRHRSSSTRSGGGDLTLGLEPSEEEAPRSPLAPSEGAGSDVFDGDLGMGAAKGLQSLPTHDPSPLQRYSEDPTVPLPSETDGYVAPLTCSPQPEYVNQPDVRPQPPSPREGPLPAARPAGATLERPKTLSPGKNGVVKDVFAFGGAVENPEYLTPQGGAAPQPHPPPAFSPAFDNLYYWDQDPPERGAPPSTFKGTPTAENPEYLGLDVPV
assay-name: reducers of endogenous Her2 protein level, primary screen, SKBR3 breast tumor cells, AlphaScreen, ATP viability (AID 461);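 also: lower value means less Her2 protein in the cells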
reported-conditions: 18-24 h, at 10 µM, stronger effect = lower value
The source made the active and inactive calls.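 The calls were made as follows: active = Her2 level under about 52% in both replicate screens, with viability over 70% of control (limit read from the data); inconclusive = Her2 under the limit in one screen only, or viability under 70%; inactive = Her2 level above the set limit.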
endpoint: Her2 level

compound: O=C(c1cccs1)c1cn(CC(=O)N2CCc3ccccc3C2)c2ccccc12
Her2 level: 108% (inactive)

compound: COCCCn1c(SCC(=O)N2CCc3ccccc32)nnc1-c1ccoc1C
Her2 level: 80% (inactive)

compound: CCC(C(=O)Nc1ccccc1C(=O)N1CCCC1)N1C(=O)c2ccccc2C1=O (configuration not stated)
Her2 level: 88% (inactive)

compound: COc1cccc(OCCOCCN(C)CCO)c1
Her2 level: 124% (inactive)

input: Find the recorded Her2 level belonging to COc1ccc(CNC(=O)C(c2ccco2)N(Cc2cccs2)C(=O)Cc2cccs2)cc1 (configuration not stated) and report it.
output: 86.5% (inactive)

input: Find the recorded Her2 level belonging to O=C(C1CCCO1)N1CCc2ccccc21 (configuration not stated) and report it.
output: 92.5% (inactive)

input: Find the recorded Her2 level belonging to `Cc1ccccc1C(=O)NC1CCN(Cc2nnnn2Cc2ccccc2)CC1` and report it.
output: 78% (inactive)

* * *

assay-name: reversal of MRP1-mediated doxorubicin resistance, pilot screen, H69AR cells, doxorubicin co-treatment (AID 601)
reported-conditions: H69AR cells + 2 uM doxorubicin, CellTiter-Glo, 72 h; at 10 µM; stronger effect = higher value
endpoint: differential viability (reversal) (%)
Kindly answer with a numeric value in %, unit omitted.

Some solved cases for reference:
compound: CCOC(=O)c1c(C)oc2ccc(O)c(CN(C)C)c12
differential viability (reversal), %: 3.6
//
compound: Nc1nc2n(n1)C(c1cccc(Cl)c1)CC(c1ccc(F)cc1)N2 (stereo not drawn)
differential viability (reversal), %: -10.5
//
compound: COCCn1nnnc1C(c1cc2cc(C)cc(C)c2[nH]c1=O)N1CCN(c2ccccc2F)CC1 (stereo not drawn)
differential viability (reversal), %: -5.39

input: Find the recorded differential viability (reversal) belonging to COc1ccc2cc(C(c3nnnn3C(C)(C)C)N3CCc4ccccc4C3)c(=O)[nH]c2c1 (stereo not drawn) and report it.
output: 26

input: Find the recorded differential viability (reversal) belonging to `C/C(=C\C(=O)O)CC(=O)O` and report it.
output: -15.7

input: Find the recorded differential viability (reversal) belonging to Cc1ccc2c(c1)C(O)(CC(=O)c1ccc3c(c1)OCO3)C(=O)N2 (stereo not drawn) and report it.
output: 8.13

input: Find the recorded differential viability (reversal) belonging to `CCc1nnc(NC(=O)CSc2nnc3ncccn23)s1` and report it.
output: -3.16

input: Find the recorded differential viability (reversal) belonging to `CCOC(=O)C1CCN(c2cc(C)nc3cc(-c4cccc(F)c4)nn23)CC1` and report it.
output: 7.95

input: Find the recorded differential viability (reversal) belonging to Oc1ccc(N2CCN(C(c3cccnc3)c3nnnn3Cc3ccccc3)CC2)cc1 (stereo not drawn) and report it.
output: -2.76

input: Find the recorded differential viability (reversal) belonging to COCCCn1c(=N)c(C(=O)NCC2CCCO2)cc2c(=O)n3cccc(C)c3nc21 (stereo not drawn) and report it.
output: 5.39

* * *

Recorded viability by entry
assay-name: reversal of MRP1-mediated doxorubicin resistance, pilot screen, H69AR cells, doxorubicin co-treatment (AID 601)
reported-conditions: H69AR cells, CellTiter-Glo, 72 h; compound alone cytotoxicity; at 10 µM
Kindly answer with a numeric value in %, unit omitted.

input: Find the recorded viability belonging to `CCOc1ccc2nc(SCC(=O)Nc3ncccn3)[nH]c2c1` and report it.
output: 105

* * *

assay-name: reversal of MRP1-mediated doxorubicin resistance, pilot screen, H69AR cells, doxorubicin co-treatment (AID 601)
reported-conditions: H69AR cells, CellTiter-Glo, 72 h; compound alone cytotoxicity; at 10 µM
endpoint: viability (%)
Kindly answer with a numeric value in %, unit omitted.

Some solved cases for reference:
compound: Cc1nc2ccccc2c(=O)n1NC(=O)Nc1ccccc1
endpoint: viability
reported-result: 107
--
compound: Cc1nc2cc(CO)ccc2n1C
endpoint: viability
reported-result: 98.1
--
compound: CCOC(=O)n1c(=O)oc2cc(S(=O)(=O)N3CCCCC3)ccc21
endpoint: viability
reported-result: 90.2
--
compound: CCOC(=O)c1cc(-c2ccc3c(c2)OCO3)nc2onc(C)c12
endpoint: viability
reported-result: 67.2

input: Find the recorded viability belonging to C=C1[C@@H](C)C2[C@H](Cc3ccccc3)NC(=O)[C@]23OC(=O)CC[C@H](O)CCC[C@H](C)C/C=C/[C@H]3[C@@H]1O (stereo not given in full) and report it.
output: 31.9

input: Find the recorded viability belonging to `COc1cc(N=c2ssnc2Cl)cc(OC)c1` and report it.
output: 3.23

input: Find the recorded viability belonging to COC(=O)c1[nH]c2c(c1C)C(=O)CC(c1cccs1)C2 (stereo not given) and report it.
output: 36.7

input: Find the recorded viability belonging to `Cc1onc(-c2ccccc2)c1C(=O)N1CCCSC1=Nc1ccccc1` and report it.
output: 92.5

input: Find the recorded viability belonging to `COc1ccc(N2CCN(C(=O)CSc3ccccc3N)CC2)cc1` and report it.
output: 94.9

input: Find the recorded viability belonging to COc1ccccc1CNC(=O)C(C)NS(=O)(=O)c1ccccc1 (stereo not given) and report it.
output: 87.1

* * *

assay-name: growth inhibitors of H69AR lung tumor, primary screen, human, duplicate replicates (AID 580);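 also: 100% = mean luminescence of untreated wells and 0% = no signal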
reported-conditions: H69AR lung tumor cells viability, ATP luminescence, 72 h; at 10 µM; stronger effect = lower value
endpoint: viability (%)
Kindly answer with a numeric value in %, unit omitted.

molecule: Cc1nc(-c2coc3cc(OCC(=O)O)ccc3c2=O)cs1
reported-result: 90.5

molecule: CCCc1cc(C(=O)Nc2ccccc2C(=O)OC)no1
reported-result: 89.3

molecule: CCN(C(=O)c1cccs1)c1nnc(-c2ccncc2)s1
reported-result: 92.5

molecule: COc1ccc(N2C(=O)c3cccc4cccc(c34)C2=O)nn1
reported-result: 92.3

input: Find the recorded viability belonging to `CC(C)NC(=O)c1ccccc1NC(=O)CCS(=O)(=O)Cc1ccccc1` and report it.
output: 87.7

input: Find the recorded viability belonging to `COc1ccc(CCn2c(N)c(C#N)c3nc4ccccc4nc32)cc1OC` and report it.
output: 90.4

input: Find the recorded viability belonging to `COc1cccc(NC(=O)COC(=O)c2cccnc2)c1` and report it.
output: 91.1

input: Find the recorded viability belonging to O=C1c2ccccc2C(Nc2ccc3nc(-c4cccnc4)[nH]c3c2)N1Cc1ccco1 (stereo not drawn) and report it.
output: 91.2
